Numbers sourced from ChEMBL document CHEMBL3045062.

Listed next: entries and their corresponding log10 of MIC90.
system: Mycobacterium tuberculosis; assay: Antitubercular activity against Isoniazid,rifampicin,gatifloxacin-resistant Mycobacterium tuberculosis after 60 days; type: functional
Measure Name: log10 of MIC90 (log10 of the value in µg/mL)

Molecule	Target	log10 of MIC90
COc1c(N2CCNC(C)C2)c(F)cc2c(=O)c(C(=O)O)cn(C3CC3)c12 (stereo not given)	Mycobacterium tuberculosis	1.45
O=C(Cn1c2ccccc2c2nc3ccccc3nc21)N1N=C(c2cc3cc(O)ccc3o2)CC1c1ccc(Cl)cc1 (stereo not given)	Mycobacterium tuberculosis	0.94
O=C(Cn1c2ccccc2c2nc3ccccc3nc21)N1N=C(c2cc3cc(O)ccc3o2)CC1c1ccc(O)cc1 (stereo not given)	Mycobacterium tuberculosis	1.05
O=C(Cn1c2ccccc2c2nc3ccccc3nc21)N1N=C(c2cc3cc(O)ccc3o2)CC1c1ccccc1O (stereo not given)	Mycobacterium tuberculosis	1.10
CN(C)c1ccc(C2CC(c3cc4cc(O)ccc4o3)=NN2C(=O)Cn2c3ccccc3c3nc4ccccc4nc32)cc1 (stereo not given)	Mycobacterium tuberculosis	0.95
O=C(Cn1c2ccccc2c2nc3ccccc3nc21)N1N=C(c2cc3cc(O)ccc3o2)CC1c1ccco1 (stereo not given)	Mycobacterium tuberculosis	0.99
COc1ccccc1C1CC(c2cc3cc(O)ccc3o2)=NN1C(=O)Cn1c2ccccc2c2nc3ccccc3nc21 (stereo not given)	Mycobacterium tuberculosis	1.13
COc1ccc(C2CC(c3cc4cc(O)ccc4o3)=NN2C(=O)Cn2c3ccccc3c3nc4ccccc4nc32)c(O)c1 (stereo not given)	Mycobacterium tuberculosis	1.12
CC(=O)c1ccccc1C1CC(c2cc3cc(O)ccc3o2)=NN1C(=O)Cn1c2ccccc2c2nc3ccccc3nc21 (stereo not given)	Mycobacterium tuberculosis	0.87
CO[C@H]1/C=C/O[C@@]2(C)Oc3c(C)c(O)c4c(O)c(c(/C=N/N5CCN(C)CC5)c(O)c4c3C2=O)NC(=O)/C(C)=C\C=C\[C@H](C)[C@H](O)[C@@H](C)[C@@H](O)[C@@H](C)[C@H](OC(C)=O)[C@@H]1C	Mycobacterium tuberculosis	0.87
COc1ccc(C2CC(c3cc4cc(O)ccc4o3)=NN2C(=O)Cn2c3ccccc3c3nc4ccccc4nc32)cc1 (stereo not given)	Mycobacterium tuberculosis	1.19
O=C(Cn1c2ccccc2c2nc3ccccc3nc21)N1N=C(c2cc3cc(O)ccc3o2)CC1c1ccccc1[N+](=O)[O-] (stereo not given)	Mycobacterium tuberculosis	0.86
O=C(Cn1c2ccccc2c2nc3ccccc3nc21)N1N=C(c2cc3cc(O)ccc3o2)CC1c1ccccc1Cl (stereo not given)	Mycobacterium tuberculosis	0.94
O=C(Cn1c2ccccc2c2nc3ccccc3nc21)N1N=C(c2cc3cc(O)ccc3o2)CC1/C=C/c1ccccc1 (stereo not given)	Mycobacterium tuberculosis	1.05
O=C(Cn1c2ccccc2c2nc3ccccc3nc21)N1N=C(c2cc3cc(O)ccc3o2)CC1c1cccc([N+](=O)[O-])c1 (stereo not given)	Mycobacterium tuberculosis	0.30
